Quick note: these are IC50 numbers for system: Tyrosine-protein kinase SYK (Homo sapiens, UniProt P43405)
Expressed in nM, but write only the number.

- structure_notation: "CNC(=O)c1nn(C)c2ccc(Nc3nccc(-n4cc(OC5CNC5)c(C)n4)n3)cc12"
  measured_endpoint: "IC50"
  unit_descriptor: "nM"
  assay_result: 1.3
- structure_notation: "CNC(=O)c1nn(C)c2ccc(Nc3nccc(-n4cc(N[C@H]5CNC[C@@H]5F)c(C)n4)n3)cc12"
  measured_endpoint: "IC50"
  unit_descriptor: "nM"
  assay_result: 0.3
- structure_notation: "Cc1nn(-c2ccnc(Nc3ccc4c(c3)c(Cl)nn4C)n2)cc1N[C@@H]1CCOC[C@@H]1N"
  measured_endpoint: "IC50"
  unit_descriptor: "nM"
  assay_result: 62
- structure_notation: "CNC(=O)c1nn(C)c2ccc(Nc3nccc(-n4cc(O[C@@H]5CCCNC5)c(C)n4)n3)cc12"
  measured_endpoint: "IC50"
  unit_descriptor: "nM"
  assay_result: 0.19

Next compound, IC50 to be filled in.
Please give the measured IC50 for this compound: CNC(=O)c1nc(C)n2ccc(Nc3nccc(-n4cc(CN(C)C)cn4)n3)cc12
0.24

====

assay: Protein binding in Han Wistar rat plasma assessed as unbound fraction; format: ADME, cell-free
Quick rule: fraction unbound of at least 0.2 means Fulfilled, below that means Not fulfilled.

Take a look at these entries with their results.
- structure_notation: "CNC(=O)c1nn(C)c2ccc(Nc3nccc(-n4cc(N[C@@H]5CCOC[C@@H]5N)cn4)n3)cc12"
  class_assignment: "Fulfilled"
- structure_notation: "CNC(=O)c1nn(C)c2ccc(Nc3nccc(-n4cc(NCC5(N)CC5)c(C)n4)n3)cc12"
  class_assignment: "Not fulfilled"
- structure_notation: "CNC(=O)c1nn(C)c2ccc(Nc3nccc(-n4cc(N[C@@H]5CCOC[C@@H]5N)c(C)n4)n3)cc12"
  class_assignment: "Fulfilled"
- structure_notation: "CNC(=O)c1nn(C)c2ccc(Nc3nccc(-n4cc(N[C@@H]5CCNC5)c(C)n4)n3)cc12"
  class_assignment: "Fulfilled"

Continue with the next compound.
Check the entry CNC(=O)c1nn(C)c2ccc(Nc3nccc(-n4cc(N[C@@H]5CCCNC5)c(C)n4)n3)cc12 : does fraction unbound equal or exceed 0.2?
Fulfilled

====

assay: Lipophilicity, logD of compound in buffer:octanol (100:1) at pH 7.4 by shake flask method; type: physicochemical
measured_endpoint: logD
Lab note: record just the number, no unit beside it.

Example entries and their recorded answers appear below.
- structure_notation: "CNC(=O)c1nn(C)c2ccc(Nc3nccc(-n4cc(N[C@@H]5CCOC[C@@H]5N)c(C)n4)n3)cc12"
  assay_result: 1.6
- structure_notation: "CNC(=O)c1nn(C)c2ccc(Nc3nccc(-n4cc(N[C@@H]5CCCNC5)c(C)n4)n3)cc12"
  assay_result: 0.6
- structure_notation: "CNC(=O)c1nn(C)c2ccc(Nc3nccc(-n4cc(O[C@H]5CNC[C@H]5F)c(C)n4)n3)cc12"
  assay_result: 2.9

I would be grateful if you could share the reported logD for CNC(=O)c1nn(C)c2ccc(Nc3nccc(-n4cc(N[C@@H]5CCOC[C@@H]5N)cn4)n3)cc12 .
2.2

Now the molecule CNC(=O)c1nn(C)c2ccc(Nc3nccc(-n4cc(O[C@@H]5CCCNC5)c(C)n4)n3)cc12
1.7

Would you mind doing CNC(=O)c1nn(C)c2ccc(Nc3nccc(-n4cc(N[C@H]5CNC[C@@H]5F)c(C)n4)n3)cc12 as well?
1.7

Similarly, CNC(=O)c1nc(C)n2ccc(Nc3nccc(-n4cc(N[C@@H]5CCOC[C@@H]5N)cn4)n3)cc12 ?
1.7

Further, for CNC(=O)c1nn(C)c2ccc(Nc3nccc(-n4cc(N[C@@H]5CCNC5)c(C)n4)n3)cc12 ?
0.3

Please do the same for CNC(=O)c1nn(C)c2ccc(Nc3nccc(-n4cc(OC5CNC5)c(C)n4)n3)cc12 as well.
1.9
